Target: T1, human ActRIIB (human, UniProt Q13705 19-137, limits assumed)
T1 construct: antigen in MSD-SET; also called ACVR2B; ActR2B
T1 sequence: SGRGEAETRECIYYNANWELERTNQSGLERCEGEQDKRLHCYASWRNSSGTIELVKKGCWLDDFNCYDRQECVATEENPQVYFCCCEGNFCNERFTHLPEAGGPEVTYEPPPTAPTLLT
Experiment: MSD-SET, preliminary
READOUT: Kd (pM)
Give bare numbers, in pM.

Solved entries (count: 2):
| BINDER | VALUE_UNITS | Kd |
| --- | --- | --- |
| Antibody Schwardamaga (antibody, V domains shown, full-length IgG) VH: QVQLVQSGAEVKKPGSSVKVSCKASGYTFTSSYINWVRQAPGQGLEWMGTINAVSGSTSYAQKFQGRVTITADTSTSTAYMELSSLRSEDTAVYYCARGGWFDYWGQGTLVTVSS VL: QSALTQPRSVSGSPGQSVTISCTGTSSDVGSANYVNWYQQHPGKAPKPMIYGVSRRPSGVPDRFSGSKSGNTASLTISGLQAEDEADYYCGTFAGGKYYGVFGGGTKLTVL | pM | 29.3 |
| Ofaschlupfer Fab (Fab, V domains shown, Fab) VH: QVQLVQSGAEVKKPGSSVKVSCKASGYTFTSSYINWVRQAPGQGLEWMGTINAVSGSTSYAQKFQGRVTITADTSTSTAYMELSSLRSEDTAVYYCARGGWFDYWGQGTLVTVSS VL: QSALTQPRSVSGSPGQSVTISCTGTSSDVGSKNYVNWYQQHPGKAPKLMIYGVSKRESGVPDRFSGSKSGNTASLTISGLQAEDEADYYCGTFAGGKYYGVFGGGTKLTVL | pM | 25.3 |

Note: attention shifts to another entry.
Lookup: Give Kd for Soidawürstle Fab (Fab, V domains shown, Fab; also called Soidawüsrstel (Fab)) VH: QVQLVQSGAEVRKPGSSVKVSCKASGYTFTSSYINWVRQAPGQGLEWMGTINPVSGSTSYAQKFQGRVTITADTSTSTAYMELSSLRSEDTAVYYCARGGWFDYWGQGTLVTVSS VL: QSALTQPRSVSGSPGQSVTISCTGTSSDVGSYNRVNWYQQHPGKAPKLMIYGVSKRESGVPDRFSGSKSGNTASLTISGLQAEDEADYYCGTFAGGRYYGVFGGGTKLTVL
Found: 19.7
